Parameter: Post-emergence action against VERPE in %. Scope: all listed entries.
system: Verconica persica (VERPE); experiment: Post-emergence herbicidal action against VERPE; format: in vivo; details: dosage 80 g/ha
measured_endpoint: Post-emergence action against VERPE in % (%)

> print(dat)
                                    molecule                     target  assay.result
 1  C=C(COC(=O)COc1nn(-c2ccccn2)c(-c2ccc(F)nc2)c1Br)C(=O)OC  Verconica persica (VERPE)            90
 2  O=C(O)COc1nn(-c2ncccc2F)c(-c2ccc(F)nc2)c1Br  Verconica persica (VERPE)            90
 3  Cc1ncccc1-n1nc(OCC(=O)OCc2ccccn2)c(Br)c1-c1cncc(F)c1  Verconica persica (VERPE)            80
 4  CCOC(=O)COc1nn(-c2nc(F)ccc2F)c(-c2ccc(F)nc2)c1Br  Verconica persica (VERPE)            80
 5  CCOC(=O)COc1nn(-c2nc(F)ccc2F)c(-c2ccc(F)nc2)c1Cl  Verconica persica (VERPE)            80
 6  O=C(COc1nn(-c2ncccc2F)c(-c2ccc(F)nc2)c1C1CC1)OCC1CCCC1  Verconica persica (VERPE)            80
 7  COC(=O)COc1nn(-c2ncccc2C)c(-c2cncc(F)c2)c1Br  Verconica persica (VERPE)            90
 8  CCOC(=O)[C@@H](C)Oc1nn(-c2ncccc2F)c(-c2cncc(F)c2)c1Cl  Verconica persica (VERPE)            90
 9  CCOC(=O)COc1nn(-c2cccnc2C)c(-c2cncc(F)c2)c1Br  Verconica persica (VERPE)            90
10  COC(=O)C(C)COC(=O)C(C)Oc1nn(-c2ccccn2)c(-c2ccc(F)nc2)c1Br (centres unmarked)  Verconica persica (VERPE)            80
11  COC(=O)CCOC(=O)COc1nn(-c2ncccc2F)c(-c2ccc(F)nc2)c1C1CC1  Verconica persica (VERPE)            80
12  C[C@@H](Oc1nn(-c2ccccn2)c(-c2cncc(F)c2)c1Cl)C(=O)O  Verconica persica (VERPE)            80
13  O=C(O)COc1nn(-c2ccccn2)c(-c2ccc(F)nc2)c1Cl [Example I-98]  Verconica persica (VERPE)            80
14  O=C(O)CNC(=O)COc1nn(-c2ccccn2)c(-c2ccc(F)nc2)c1Cl  Verconica persica (VERPE)            90
15  COCCOC(=O)COc1nn(-c2ccccn2)c(-c2ccc(F)nc2)c1Br  Verconica persica (VERPE)            80
16  COC(=O)CCOC(=O)COc1nn(-c2cccc(C)n2)c(-c2ccc(F)nc2)c1Cl  Verconica persica (VERPE)            80
17  O=C(COc1nn(-c2ncccc2F)c(-c2ccc(F)nc2)c1C1CC1)OCC1COC1  Verconica persica (VERPE)            80
18  COCCOC(=O)COc1nn(-c2cccnc2C)c(-c2cncc(F)c2)c1Br  Verconica persica (VERPE)            80
19  CCOC(=O)COc1nn(-c2ncccc2F)c(-c2ccc(F)nc2)c1Br  Verconica persica (VERPE)            80
20  CC(C)OC(=O)COc1nn(-c2ncccc2F)c(-c2ccc(F)nc2)c1C1CC1  Verconica persica (VERPE)            90
